System: MEF
experiment_notes: Neuro-regenerative activity in NMRI mouse MEF cells transfected with human DCX promoter-driven firefly luciferase reporter assessed as induction of neuronal differentiation at 10 uM incubated for 3 days by luciferase reporter gene based luminescence analysis
Type: functional, cell-based
measurement_parameters: time 3.0 day
The source made the active and inactive calls. The calls are words filed in the database; no cut-off is given here.
Possible outcomes: active, inactive

compound | class_name
COc1cc2c(c(O)c1C(=O)/C=C/c1ccc(O)cc1)CCC(C)(C)O2 | active
CC1(C)C=Cc2c(cc3c(c2O)C(=O)CC(c2ccc(O)cc2)O3)O1 (stereo not drawn) | active
COc1cc2c(c3c1C(=O)CC(c1ccc(O)cc1)O3)C=CC(C)(C)O2 (stereo not drawn) | active
COc1cc2c(c(O)c1C(=O)/C=C/c1ccc(O)c(O)c1)C=CC(C)(C)O2 | active
COc1cc2c(c(O)c1C(=O)/C=C/c1ccc(O)cc1)C=CC(C)(CCC=C(C)C)O2 (stereo not drawn) | inactive
CC1(C)C=Cc2c(cc(O)c3c2OC(c2ccc(O)cc2)CC3=O)O1 (stereo not drawn) | active
COc1ccc(/C=C/C(=O)c2c(OC)cc3c(c2O)C=CC(C)(C)O3)cc1 | active
COc1cc2c(c(O)c1C(=O)/C=C/c1ccc3c(c1)OCO3)C=CC(C)(C)O2 | active
